Target: T1, hCMV gH + gL + UL128 + UL130 + UL131A (5-member complex; HEK293T co-transfectant) (hCMV, UniProt P12824 24-743; P16832 31-278; P16837 1-171; P16772 1-214)
T1 construct: whole, on cells; in the functional rows it stands for the complex on virions or transduced cells of the strain or isolate named in the readout; also called gH/gL/UL128-131A complex; pentameric complex
Assay: cell competition; competitor 2C12-biotin
Measure: Inhibition of binding (%)
Please give a number only; it is taken to be in %.

Request: Could you share which Inhibition of binding (%) value was measured for 10P3 (antibody, V domains shown, human IgG) VH: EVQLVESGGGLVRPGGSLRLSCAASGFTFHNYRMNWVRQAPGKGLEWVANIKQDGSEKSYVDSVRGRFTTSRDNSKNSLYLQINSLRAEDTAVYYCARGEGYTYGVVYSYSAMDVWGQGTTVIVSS VL: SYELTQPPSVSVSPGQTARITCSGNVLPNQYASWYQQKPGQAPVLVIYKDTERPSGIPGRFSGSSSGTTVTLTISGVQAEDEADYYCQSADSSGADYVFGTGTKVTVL ?
Response: 0

Request: Data request, read-out Inhibition of binding (%), for 2C12 (antibody, V domains shown, human IgG; also called 2C12-biotin) VH: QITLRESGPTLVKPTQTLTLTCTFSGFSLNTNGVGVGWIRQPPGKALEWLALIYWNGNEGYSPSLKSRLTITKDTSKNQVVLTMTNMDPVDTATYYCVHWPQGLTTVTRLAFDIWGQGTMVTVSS VL: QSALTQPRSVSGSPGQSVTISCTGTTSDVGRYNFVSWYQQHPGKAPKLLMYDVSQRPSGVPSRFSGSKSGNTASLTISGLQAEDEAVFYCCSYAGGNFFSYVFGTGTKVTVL
Response: 100

Request: Record request: Inhibition of binding (%) value, item 9I6 (antibody, V domains shown, human IgG; also called 9I6-biotin; 916) VH: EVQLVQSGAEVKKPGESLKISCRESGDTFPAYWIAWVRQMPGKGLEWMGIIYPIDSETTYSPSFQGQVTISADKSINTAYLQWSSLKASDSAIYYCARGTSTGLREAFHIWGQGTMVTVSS VL: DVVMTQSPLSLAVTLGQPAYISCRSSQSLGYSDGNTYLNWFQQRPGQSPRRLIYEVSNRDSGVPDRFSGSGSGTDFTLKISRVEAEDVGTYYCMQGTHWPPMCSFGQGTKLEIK
Response: 100
